Record form. Attribute: pKd. Fill in for each entry.
Target: T1, IFN-α4a (human, UniProt P05014 24-189)
T1 construct: also called IFN-αM1
Test: ProteOn, one antigen concentration
One number for each entry, as −log10 of the molar value.

Each binder below has a recorded value; state its pKd.
1. IFWM3329 (antibody, V domains shown, VH IFWH591, VL IFWL1067; converted mAb; also called IFWB3064) VH: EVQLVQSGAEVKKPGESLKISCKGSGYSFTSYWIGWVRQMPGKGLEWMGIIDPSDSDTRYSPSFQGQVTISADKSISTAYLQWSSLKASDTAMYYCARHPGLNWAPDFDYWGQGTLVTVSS VL: DIQMTQSPSSLSASVGDRVTITCRASQSIRNNNLNWYQQKPGKAPKLLIHWASSLQSGVPSRFSGSGSGTDFTLTISSLQPEDFATYYCQQGYDTPFTFGQGTKVEIK
2. IFWM3315 (antibody, V domains shown, VH IFWH591, VL IFWL1017; converted mAb; also called IFWB3050) VH: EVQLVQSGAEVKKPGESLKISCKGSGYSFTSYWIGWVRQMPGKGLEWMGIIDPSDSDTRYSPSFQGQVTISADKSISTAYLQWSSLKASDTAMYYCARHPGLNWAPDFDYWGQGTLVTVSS VL: DIQMTQSPSSLSASVGDRVTITCRASQSITSSLNWYQQKPGKAPKLLIYFASSLQSGVPSRFSGSGSGTDFTLTISSLQPEDFATYYCQQSFDLPLTFGQGTKVEIK

1. 9.59
2. 9.62
